As shown below, each of these molecules has a reported hEphA6-SEAP-: absorbance at 450 nm, percentage with respect to hEphA4-SEAP-His as 100% value.
- target under test: T1, human EphA6 (Homo sapiens, UniProt Q9UF33)
- T1 construct: a protein of the extracellular region of each human Eph receptor fused with the SEAP protein and the His tag; made in house; host or cells: Expi293F cells (culture supernatant)
- T1 sequence (Q9UF33 23-550 limits assumed): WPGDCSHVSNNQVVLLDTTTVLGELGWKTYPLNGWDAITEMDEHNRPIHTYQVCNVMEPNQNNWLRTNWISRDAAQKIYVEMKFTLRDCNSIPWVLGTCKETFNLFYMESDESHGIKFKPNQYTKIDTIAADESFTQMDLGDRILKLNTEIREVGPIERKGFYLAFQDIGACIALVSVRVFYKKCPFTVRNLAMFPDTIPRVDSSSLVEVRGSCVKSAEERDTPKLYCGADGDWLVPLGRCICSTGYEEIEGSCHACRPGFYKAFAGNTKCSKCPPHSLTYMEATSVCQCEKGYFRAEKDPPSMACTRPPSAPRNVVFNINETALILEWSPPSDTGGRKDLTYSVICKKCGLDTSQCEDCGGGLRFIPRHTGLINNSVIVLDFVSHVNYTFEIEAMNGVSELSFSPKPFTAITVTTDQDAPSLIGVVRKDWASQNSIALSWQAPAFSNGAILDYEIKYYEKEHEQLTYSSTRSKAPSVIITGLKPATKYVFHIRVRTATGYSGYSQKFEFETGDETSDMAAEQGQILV
- protocol notes: Selectivity ELISA of humanized antibodies for human Eph receptor
- Assay type: binding
- condition parameters: coated protein 1 nM
property measured: hEphA6-SEAP-: absorbance at 450 nm, percentage with respect to hEphA4-SEAP-His as 100%

| molecule | assay result |
| --- | --- |
| 82 (antibody, V domains shown, constant regions without entry; synthetic humanized antibody light chain variable region sequence; synthetic humanized antibody heavy chain variable region sequence) VL: DIQMTQSPSSLSASVGDRVTITCRASENIYRNLAWYQQKPGKAPKLLLYAATNLADGVPSRFSGSGSGTDYTLTISSLQSEDFATYYCQHFWGTPWTFGQGTKVEIK VH: QVQLVQSGSELKKPGASVKVSCKASGYTFTDYSMHWVRQAPGQGLKWMGWINTETGEPTYAQGFTGRFVFSLDTSVSTAYLQISSLKAEDTAVYYCARIPLYYYGSRYWYFDVWGQGTTVTVSS | 8.7% |
| 154 (antibody, V domains shown, synthetic humanized antibody heavy chain variable region sequence; synthetic humanized antibody light chain variable region sequence) VH: QVQLVQSGSELKKPGASVKVSCKASGYTFTDYSMHWVRQAPGQGLEWMGWINTETGEPTYADDFKGRFVFSLDTSVSTAYLQISSLKAEDTAVYYCARIPLYYYGSRYWYFDVWGQGTTVTVSS VL: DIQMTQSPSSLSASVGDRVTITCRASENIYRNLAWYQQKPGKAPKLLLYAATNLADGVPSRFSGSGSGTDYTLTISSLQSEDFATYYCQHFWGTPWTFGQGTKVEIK | 8.4% |
| 152 (antibody, V domains shown, synthetic humanized antibody heavy chain variable region sequence; synthetic humanized antibody light chain variable region sequence) VH: QVQLVQSGSELKKPGASVKVSCKASGYTFTDYSMHWVRQAPGQGLEWMGWINTETGEPTYAQGFTGRFVFSLDTSVSTAYLQISSLKAEDTAVYYCARIPLYYYGSRYWYFDVWGQGTTVTVSS VL: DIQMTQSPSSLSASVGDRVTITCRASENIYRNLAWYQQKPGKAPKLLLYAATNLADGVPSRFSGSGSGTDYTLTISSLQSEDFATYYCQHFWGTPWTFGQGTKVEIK | 8.3% |
| 73 (antibody, V domains shown, synthetic humanized antibody heavy chain variable region sequence; synthetic humanized antibody light chain variable region sequence) VH: QIQLVQSGSELKKPGASVKVSCKASGYTFTDYSMHWVRQAPGQGLKWMGWINTETGEPTYADDFKGRFVFSLDTSVSTAYLQISSLKAEDTAVYYCARIPLYYYGSRYWYFDVWGQGTTVTVSS VL: EIVMTQSPATLSVSPGERATLSCRASENIYRNLAWYQQKPGQSPRLLIYAATNLADGIPARFSGSGSGTEYTLTISSLQSEDFAVYYCQHFWGTPWTFGQGTKVEIK | 7.4% |
